Tested on: Botrytis cinerea
EXPERIMENTAL CONTEXT: in vivo
TEST READOUT: Preventive value

> print(dat)
                                    compound      test.readout  value.observed
 1  Fc1ccc(C2(Cn3nc[nH]c3=S)OC2c2ccccc2Cl)c(F)c1 (stereo not shown)  Preventive value              40
 2  CCCCCCCCCCCCCN1CC(C)OC(C)C1 (stereo not shown)  Preventive value              17
 3  Cc1cc(C(F)(F)F)nn1CC(=O)N1CCC(c2nc(C3=NOC(c4c(F)cccc4F)C3)cs2)CC1 (stereo not shown)  Preventive value              33
 4  CC(C1CC1)C(O)(Cn1cncn1)c1ccc(Cl)cc1 (stereo not shown)  Preventive value              17
 5  Cn1cc(C(=O)Nc2ccccc2-c2cc(F)c(F)c(F)c2)c(C(F)F)n1  Preventive value              33
 6                                S1SSSSSSS1  Preventive value               0
 7                  Cc1ccc2nc3sc(=O)sc3nc2c1  Preventive value              17
 8  C[C@@H](NC(=O)C(C#N)C(C)(C)C)c1ccc(Cl)cc1Cl (stereo partly shown)  Preventive value              17
 9  Cc1nc(C(F)(F)F)c(C(=O)Nc2c(Br)cc(OC(F)(F)F)cc2Br)s1 [Thifluzamide (b-42), Thifluzamide]  Preventive value              23
10  COc1cc(F)c(-c2c(Cl)nc(C)n2-c2cccc(F)c2)c(F)c1  Preventive value              50
11           O=C1c2ccccc2C(=O)N1SC(Cl)(Cl)Cl  Preventive value              73
12  Cn1cc(C(=O)Nc2cccc3c2[C@@H]2CC[C@H]3C2=C(Cl)Cl)c(C(F)F)n1 (racemic)  Preventive value              40
13  CC(Cc1ccc(C(C)(C)C)cc1)CN1C[C@@H](C)O[C@@H](C)C1 (stereo partly shown)  Preventive value              17
14  CCN(C)/C=N/c1cc(C)c(Oc2nc(Cc3ccc(Cl)cc3)ns2)cc1C  Preventive value              40
15  Cc1nn(C)c(F)c1C(=O)Nc1ccccc1C(C)CC(C)C (stereo not shown)  Preventive value              47
16       O=C(CO)[C@@H](O)[C@@H](O)[C@H](O)CO  Preventive value              33
17  OC(Cc1ccccc1Cl)(Cn1nc[nH]c1=S)C1(Cl)CC1 (stereo not shown)  Preventive value              33
18  CC(C)C1CCC(Cc2ccc(Cl)cc2)C1(O)Cn1cncn1 (stereo not shown)  Preventive value              40
19        Fc1ccc(Oc2ccnc3cc(Cl)cc(Cl)c23)cc1  Preventive value              17
20  COc1ccccc1N1CCS/C1=C(/C#N)Sc1cc(C(F)(F)F)ccc1F  Preventive value              17
21  Cn1cc(C(=O)Nc2ccccc2C2CC2C2CC2)c(C(F)F)n1 (stereo not shown)  Preventive value              50
22                   Cc1cc(C)nc(Nc2ccccc2)n1  Preventive value              33
23  CON=C(C(=O)OC)c1ccccc1CON=C(C)c1cccc(C(F)(F)F)c1  Preventive value              33
24  FC(F)C(F)(F)OCC(Cn1cncn1)c1ccc(Cl)cc1Cl (stereo not shown)  Preventive value              40
25  CO/N=C(/C1=NOCCO1)c1ccccc1Oc1ncnc(Oc2ccccc2Cl)c1F  Preventive value              40
